Sequence of the target: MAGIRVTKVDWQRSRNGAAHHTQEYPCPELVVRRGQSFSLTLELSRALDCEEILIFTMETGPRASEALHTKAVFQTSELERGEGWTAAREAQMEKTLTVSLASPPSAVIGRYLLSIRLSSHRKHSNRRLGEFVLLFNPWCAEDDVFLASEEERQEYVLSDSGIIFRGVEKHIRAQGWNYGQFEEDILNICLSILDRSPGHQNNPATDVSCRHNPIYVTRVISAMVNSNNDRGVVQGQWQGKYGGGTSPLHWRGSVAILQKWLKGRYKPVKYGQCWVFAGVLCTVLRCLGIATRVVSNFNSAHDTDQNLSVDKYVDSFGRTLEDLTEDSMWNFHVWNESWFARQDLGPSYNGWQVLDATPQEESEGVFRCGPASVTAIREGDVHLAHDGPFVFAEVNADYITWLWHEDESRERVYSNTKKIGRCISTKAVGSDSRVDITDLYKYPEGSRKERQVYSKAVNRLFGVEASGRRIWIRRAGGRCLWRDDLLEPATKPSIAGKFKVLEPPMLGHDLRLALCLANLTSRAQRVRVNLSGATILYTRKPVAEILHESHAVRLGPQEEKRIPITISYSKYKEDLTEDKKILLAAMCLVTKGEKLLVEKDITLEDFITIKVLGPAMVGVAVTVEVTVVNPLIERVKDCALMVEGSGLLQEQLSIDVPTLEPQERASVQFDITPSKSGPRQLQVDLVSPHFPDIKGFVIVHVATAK
pIC50: −log10 of the molar value. Peptide text beside a SMILES is read from it. * marks the point of attachment. Cbz = O=C(OCc1ccccc1)*; Acryloyl = C=CC(=O)*; OtBu = CC(C)(C)O*
measuredEndpoint: pIC50

I am curious: what pIC50 value has been reported for C=CC(=O)NCCCC[C@H](NC(=O)OCc1ccccc1)C(=O)N1CCN(c2ccccc2Cl)CC1 ? 4.16

I am curious: what pIC50 value has been reported for C=CC(=O)NCCCC[C@H](NC(=O)Cc1ccccc1)C(=O)N1CCN(c2cccc(C)n2)CC1 ? < 4.10

I am curious: what pIC50 value has been reported for C=CC(=O)NCCCC[C@H](NC(=O)OCc1ccccc1)C(=O)NCC(=O)OC(C)(C)C (Cbz-Lys(Acryloyl)-Gly-OtBu) ? < 4.10

---

protocolText: Half life in human plasma at 1 uM by LC-MS/MS analysis
Assay type: ADME, cell-free
Answer each item with its documented half-life at 1 µM.

I am curious: what half-life at 1 µM value has been reported for C=CC(=O)NCCCC[C@H](NC(=O)OCc1ccccc1)C(=O)N1CCN(c2ccccc2Cl)CC1 ? > 8 h

I am curious: what half-life at 1 µM value has been reported for C=CC(=O)NCCCC[C@H](NC(=O)Cc1ccccc1)C(=O)N1CCN(c2cccc(C)n2)CC1 ? > 24 h

---

protocolText: Apparent permeability of the compound across apical to basolateral side in human Caco2 cells
Type: ADME, cell-based
condition: Caco-2
Peptide text beside a SMILES is read from it. * marks the point of attachment. Cbz = O=C(OCc1ccccc1)*; Acryloyl = C=CC(=O)*; OtBu = CC(C)(C)O*
measuredEndpoint: Papp A→B (×10⁻⁶ cm/s)
The figure you give is taken to be in ×10⁻⁶ cm/s; do not add the unit.

I am curious: what Papp A→B value has been reported for C=CC(=O)NCCCC[C@H](NC(=O)OCc1ccccc1)C(=O)NCC(=O)OC(C)(C)C (Cbz-Lys(Acryloyl)-Gly-OtBu) ? 7.5

---

Answer each item with its documented pIC50.
Target protein (sequence): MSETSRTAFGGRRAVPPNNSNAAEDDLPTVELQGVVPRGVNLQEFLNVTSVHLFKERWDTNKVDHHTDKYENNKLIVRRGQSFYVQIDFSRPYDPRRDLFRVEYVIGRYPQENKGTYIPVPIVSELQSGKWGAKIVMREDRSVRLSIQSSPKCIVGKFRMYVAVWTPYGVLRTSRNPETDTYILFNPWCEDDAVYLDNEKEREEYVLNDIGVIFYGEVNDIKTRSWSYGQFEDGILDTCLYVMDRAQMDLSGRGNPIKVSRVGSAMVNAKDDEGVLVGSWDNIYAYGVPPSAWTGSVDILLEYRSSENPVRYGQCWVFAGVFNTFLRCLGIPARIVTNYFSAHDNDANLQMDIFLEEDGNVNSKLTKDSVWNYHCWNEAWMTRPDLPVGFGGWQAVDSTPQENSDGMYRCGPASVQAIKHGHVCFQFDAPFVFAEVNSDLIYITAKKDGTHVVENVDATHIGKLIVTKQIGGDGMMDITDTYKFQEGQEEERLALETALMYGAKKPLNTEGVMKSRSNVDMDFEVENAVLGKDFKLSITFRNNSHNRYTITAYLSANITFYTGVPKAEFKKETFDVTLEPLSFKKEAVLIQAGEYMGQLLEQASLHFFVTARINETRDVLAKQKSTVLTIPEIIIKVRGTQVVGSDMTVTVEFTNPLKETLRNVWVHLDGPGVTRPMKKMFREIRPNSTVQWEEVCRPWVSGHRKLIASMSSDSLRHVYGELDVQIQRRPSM
# pIC50 = -log10(concentration in molar units)

I am curious: what pIC50 value has been reported for C=CC(=O)NCCCC[C@H](NC(=O)OCc1ccccc1)C(=O)N1CCC(c2ccccc2)CC1 ? 4.68

I am curious: what pIC50 value has been reported for C=CC(=O)NCCCC[C@H](NC(=O)Cc1ccccc1)C(=O)N1CCN(c2cccc(C)n2)CC1 ? 4.46

---

protocolText: Apparent permeability of the compound across basolateral to apical side in human Caco2 cells
Assay type: ADME, cell-based
condition: Caco-2
Peptide text beside a SMILES is read from it. * marks the point of attachment. Cbz = O=C(OCc1ccccc1)*; Acryloyl = C=CC(=O)*; OtBu = CC(C)(C)O*
measuredEndpoint: Papp B→A
Record the result as number plus unit.

I am curious: what Papp B→A value has been reported for C=CC(=O)NCCCC[C@H](NC(=O)OCc1ccccc1)C(=O)NCC(=O)OC(C)(C)C (Cbz-Lys(Acryloyl)-Gly-OtBu) ? 25 ×10⁻⁶ cm/s

---

measurementTarget: Protein-glutamine gamma-glutamyltransferase (Homo sapiens, UniProt P21980)
protocolText: Irreversible inhibition of transglutaminase 2
pIC50: −log10 of the molar value.
Threshold rule: pIC50 greater than or equal to 6 is MET; below that, NOT MET.

Could you verify whether the entry C=CC(=O)NCCCCCNC(=O)OCc1ccccc1 shows pIC50 of no less than 6? NOT MET

Could you verify whether the entry C=CC(=O)NCCCC[C@H](NC(=O)OCc1ccccc1)C(=O)N1CCN(c2ccccc2Cl)CC1 shows pIC50 of no less than 6? MET

Could you verify whether the entry C=CC(=O)NCCCC[C@H](NC(=O)OCc1ccccc1)C(=O)N1CCN(c2ncccc2C(F)(F)F)CC1 shows pIC50 of no less than 6? MET

Could you verify whether the entry C=CC(=O)NCCCC[C@H](NC(=O)OCc1ccc([N+](=O)[O-])cc1)C(=O)O shows pIC50 of no less than 6? NOT MET

Could you verify whether the entry C=CC(=O)NCCCC[C@H](NC(=O)OCc1ccccc1)C(=O)N1CCN(c2ccc(C(F)(F)F)cn2)CC1 shows pIC50 of no less than 6? MET

Could you verify whether the entry C=CC(=O)NCCCC[C@@H](CO)NC(=O)OCc1ccccc1 shows pIC50 of no less than 6? NOT MET

Could you verify whether the entry C=CC(=O)NCCCC[C@H](NC(=O)OCc1ccc(C(F)(F)F)cc1)C(=O)O shows pIC50 of no less than 6? NOT MET

Could you verify whether the entry C=CC(=O)NCCCC[C@H](NC(=O)OCc1ccccc1)C(=O)N1CCN(C)CC1 shows pIC50 of no less than 6? MET

Could you verify whether the entry C=CC(=O)NCCCC[C@H](NC(C)=O)C(=O)N1CCN(c2cccc(C)n2)CC1 shows pIC50 of no less than 6? MET

---

System: MDR1
protocolText: Efflux ratio of permeability in MDCK cells expressing MDR1 at 10 uM
Format: ADME, cell-based, Canis lupus familiaris
condition: dog
measuredEndpoint: efflux ratio at 10 µM
// return a plain number; no unit text

I am curious: what efflux ratio at 10 µM value has been reported for C=CC(=O)NCCCC[C@H](NC(=O)Cc1ccccc1)C(=O)N1CCN(c2cccc(C)n2)CC1 ? 118

I am curious: what efflux ratio at 10 µM value has been reported for C=CC(=O)NCCCC[C@H](NC(=O)OCc1ccccc1)C(=O)N1CCN(c2ccccc2Cl)CC1 ? 7.1

---

measurementTarget: Protein-glutamine gamma-glutamyltransferase (Homo sapiens)
Sequence (P21980 whole entry): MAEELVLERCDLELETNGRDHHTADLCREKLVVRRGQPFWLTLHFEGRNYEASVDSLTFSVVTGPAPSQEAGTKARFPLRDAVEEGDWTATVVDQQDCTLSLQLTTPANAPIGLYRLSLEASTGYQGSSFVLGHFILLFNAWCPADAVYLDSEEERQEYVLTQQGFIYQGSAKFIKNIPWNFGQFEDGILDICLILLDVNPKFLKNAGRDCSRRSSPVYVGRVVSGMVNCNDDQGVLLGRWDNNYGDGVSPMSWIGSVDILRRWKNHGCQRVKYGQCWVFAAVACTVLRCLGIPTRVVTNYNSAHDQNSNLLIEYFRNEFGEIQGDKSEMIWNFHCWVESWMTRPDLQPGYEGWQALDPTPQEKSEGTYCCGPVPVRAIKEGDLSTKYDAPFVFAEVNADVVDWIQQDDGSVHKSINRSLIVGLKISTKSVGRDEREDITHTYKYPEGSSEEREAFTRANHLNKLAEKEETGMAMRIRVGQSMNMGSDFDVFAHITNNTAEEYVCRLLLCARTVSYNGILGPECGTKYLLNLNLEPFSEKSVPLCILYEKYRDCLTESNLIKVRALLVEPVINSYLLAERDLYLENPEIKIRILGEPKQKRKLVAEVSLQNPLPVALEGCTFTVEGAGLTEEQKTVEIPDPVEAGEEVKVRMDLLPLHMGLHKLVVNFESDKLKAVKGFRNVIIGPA
protocolText: Irreversible inhibition of transglutaminase 2
Peptide text beside a SMILES is read from it. * marks the point of attachment. Cbz = O=C(OCc1ccccc1)*; Acryloyl = C=CC(=O)*; OtBu = CC(C)(C)O*
measuredEndpoint: IC50

I am curious: what IC50 value has been reported for C=CC(=O)NCCCC[C@H](NC(=O)OCc1ccccc1)C(=O)NCC(=O)OC(C)(C)C (Cbz-Lys(Acryloyl)-Gly-OtBu) ? 3.1 µM

I am curious: what IC50 value has been reported for C=CC(=O)NCCCC[C@H](NC(=O)OCc1ccc(CCCC)cc1)C(=O)O ? 5.9 µM

I am curious: what IC50 value has been reported for C=CC(=O)N1CCC(C[C@H](NC(=O)OC(C)(C)C)C(=O)O)CC1 ? > 80 µM

I am curious: what IC50 value has been reported for C=CC(=O)NCCCC[C@H](NC(=O)c1ccccc1)C(=O)N1CCN(c2cccc(C)n2)CC1 ? 0.19 µM

I am curious: what IC50 value has been reported for C=CC(=O)NCCCC[C@H](NC(=O)OCc1ccccc1)C(=O)N1CCOCC1 ? 0.73 µM

I am curious: what IC50 value has been reported for C=CC(=O)NCCCC[C@H](NC(=O)OC)C(=O)O ? > 80 µM

I am curious: what IC50 value has been reported for C=CC(=O)NCCCC[C@H](NC(=O)OCc1ccccc1)C(=O)N(CC)CC ? 1.4 µM

I am curious: what IC50 value has been reported for C=CC(=O)NCCCC[C@H](NC(=O)OCc1ccccc1)C(=O)N1CCN(c2cccc(C)n2)CC1 ? 0.055 µM

I am curious: what IC50 value has been reported for C=CC(=O)NCCCC[C@H](NC(=O)OCc1ccc2ccccc2c1)C(=O)O ? 9.1 µM

I am curious: what IC50 value has been reported for C=CC(=O)Nc1ccc(C[C@H](NC(=O)OCc2ccccc2)C(=O)O)cc1 ? > 80 µM
